measurement protocol: yeast display, Sf9 membrane polyspecificity reagent, FACS + sequencing; frameworks hold sequencing errors
readout name: polyreactivity (PSR sort gate)

Worked set:
chain sequence: QVQLVESGGGLVQAGGSLRLSCAASVSTFRTNAMGWYRQPPGKEREMVAAITLDGGSTYYADSVKGRFTISRDNEKNTVYLQMNSLKPEDTAVYYCAADVVSVVYLPFVNGGDYWGQGTQVTVSS
readout name: polyreactivity (PSR sort gate)
value: low polyreactivity
--
chain sequence: QVQLVESGGGLVPAGGSLPLSCAASGSTFSGHTMGWYRQAPGQDWELVADINWSSGSTYYADSVKGRFTISRDNAKNNVYLQMHSLKPEDTALLYCAAVEPFSDFDYWGQGTQVTLSS
readout name: polyreactivity (PSR sort gate)
value: low polyreactivity
--
chain sequence: QVQLVESGGGLVQAGGSLRLSCAASGSIFSQYAMGWYRQAPGKERELVAAITYGGGSTYYADSVKGRFTISRDNAKNTVYLQMNSLKPEDTAVYYCAAGYWNDFDWGQGTQVTVSS
readout name: polyreactivity (PSR sort gate)
value: low polyreactivity
--
chain sequence: QVQLVESGGGLVQAGGSLRLSCAASGSTLALYAMGWYRQAPGKERELVAVITSGGSTDYADSVKGRFTISRDNAKNTVYLQMNSLKPEDTAVYYCAAEGRPGKYSYVYWGQGTQVTVSS
readout name: polyreactivity (PSR sort gate)
value: low polyreactivity
--
chain sequence: QVQLVESGGGLVQAGGSLRLSCAASGNTFYINAMGWYRQAPGKERELVAAINYSGESTYADSVKGRFTISRDNAKNTVYFQMNSLKPEDTAVYYCAADWYFSVYIDYDTEYDYWGQGTQVTVSS
readout name: polyreactivity (PSR sort gate)
value: low polyreactivity
--
chain sequence: QVQLVESGGGLVQAGGSLRLSCAASGRIFEYAMGWYRQAPGKERELVAGITRSSSTNYADSVKGRFTISRDNAKNTVYLQKNSLKPEDTAVYYCNAESRSWYLYHYDYWGQGTQVTVSS
readout name: polyreactivity (PSR sort gate)
value: low polyreactivity

Consider QVQLVESGGGLVQAGGSLRLSCAASGRTFGGYAMGWYRQAPGKETQLVATITSGGSTYYADSVKGRFTISRDNAKNTVYLQMTSLKPEDTAVYYCAADTYFETSTRAIPSNDYWGQGTQVTVSS . Its measured polyreactivity (PSR sort gate) is low polyreactivity

Consider QVQLVESGGGLVQAGGSLRLSCAASGSIFYVYAMGWYRQAPGKERELVAAITSGGSTNYADSVKGRFTISRDNAKNTVYLQMNSLKPEDTAVYYCAAAWENIWVWQEYIEYDYWGQGTQVTVSS . Its measured polyreactivity (PSR sort gate) is low polyreactivity

Consider QVQLVESGGGLVQAGGSLRLSCAASGSILNNYAMGWYRQAPGKERELVAAISSSGGTNYADSVKGRFTISRDNAKYTVYLQMNSLKPEDTAVYYCNADVLDGGYDYWGQGTQVTVSS . Its measured polyreactivity (PSR sort gate) is low polyreactivity

Consider QVHLVESGGGLVQAGGSLRLSCAASGRTFRQYAMGWNIQAPGKERELVATISSGGSTYYADSVKGRFTISRDNAKNTVYLQMNSLKPEDTSVYYCAAASGTKRLYRGTRGDYWGQGTQVTVSS . Its measured polyreactivity (PSR sort gate) is low polyreactivity

----------
measurement protocol: yeast display, Sf9 membrane polyspecificity reagent, FACS + sequencing; frameworks hold sequencing errors
readout name: polyreactivity (PSR sort gate)

chain sequence: QDQLVESGGALVQAGGSLRLSCAASGFTFYKNAMGWYRQAPGKERELVAAISADGGRTYYADSVKGRFTISRDNAKNTVYLQMNSLKPEDTAVYYCAADKRLFRRPKTYDLWGQGTQVTVSS
value: high polyreactivity

chain sequence: QVQLVESGGGLVQAGGSLRLSCAASGSIFNRYSMGWYRQEPGKERELVASIRGTGSTYYADSVKGRFTISRDNAKNTVYLQMNSLKPEDTAVDYCAARPGYLYSKYNYWGQGTQVTVSS
value: high polyreactivity

----------
measurement protocol: yeast display, Sf9 membrane polyspecificity reagent, FACS + sequencing; frameworks hold sequencing errors
readout name: polyreactivity (PSR sort gate)

Worked set:
chain sequence: QVQLEESGGGLVQAGGSLRLSCAASGSIFRWNAMGWSRQAPGKERELVAAISSGTSTNYADSVKGRFTISRDNAKNTVYVQMNSQKPEDTAVYYCAARGRKNQRRYGYWGQGTQVTVSS
value: low polyreactivity
--
chain sequence: QVQLVESGRGLVQAGGSLRLSCAASGIIFGGYSMGWYRQAPGKERELVAAISGIGSRTYYADSVKGRFTISRDNAKNTVYLQMNSLKPEDTAVYYCNADQVYGYNYWGQGTQVTVSS
value: high polyreactivity
--
chain sequence: QVQLVESGGGLVQAGGSLRLSCAASGITFRVNTMGWYRKAPGKETEFVATISYSGDSTYYADSVKGRFTISRDNAKNTVYLQMNSLKPEDTAVYYCATELVFYGRDYWGQGTQVTVSS
value: low polyreactivity
--
chain sequence: QVQLVESGGGLVQAGGSLRLSCAASGFTIRSYVMGWYRQAPGKERELVAAIRRSGGSTYYADSVKGRFTISRDNAKNTVYLHMNSMKPEDTAVYYCAAKAYTYYARIGFDYWGQGSQVTVSS
value: high polyreactivity
--
chain sequence: QVQLVESGGGLVQAGGSLRLSCAASGSTFFRYSMGWYRQAPGKEREFVAAISKRGGSTHYADSVKGRFTITRDNAKNTVYLQMNSLKPEDTAVYYCAASSFNSSYNYWGQGTQVTVSS
value: high polyreactivity
--
chain sequence: QVQLVESGGGLVQEGGSLRLSCAASGRTSNINAMGWYRQAPGKERELVAAINSDGSTYYAYSVKGRFTISRDNAKNTVYLQMNSLKPEDTAVYYCAAVSLFRDSQFDYWGQGTQVTVSS
value: low polyreactivity

Consider QVQLVESGGGIFQAGGSLRLSCSASGFTLQGYAMVWSRQAPGKERELVAAISWSGGSTYYADSVKGRFTISRDNAKNTVYLQMNSLKPEDTAVYYCAAETYFAEYWGQGTQVTVSS . Its measured polyreactivity (PSR sort gate) is high polyreactivity

Consider QVQLVESGGGLVQAGGSLRLSCAASGNIFLYYAMGWYRQAPGKERELVADIDSSGASTYYADSVKGRFTMSRDNAKNTVYLQMNSLKPEDTAVYYCAAEFHWWYAGYDYGYWGQGTQVTVSS . Its measured polyreactivity (PSR sort gate) is low polyreactivity

Consider QVQLVESGGGLVQAGGSLRLSCAASGRIIIYKAMGWYRQAPGKERQLVAAINRSGVSTHYADSVKGRFTISRDNAKNTVYLQMNSLKPEDTAVYYCARTVYGARSYDYWGQGTQVTVSS . Its measured polyreactivity (PSR sort gate) is low polyreactivity

Consider QFQLVESGGGLVQAGGTLRLSCAASGSTFYHYPLGWYRQAPGTVRQLVARITSSSGSTYYADSVKGRFTISRDNAKNTVYLQMYSLKPEDTAVYYCAASYYIVPYLTYGYWGQGTQVTVSS . Its measured polyreactivity (PSR sort gate) is low polyreactivity

Consider QVQLVESGGGLVQAGGSLRLSCAASGSTFTYYAMGWYRQAPGKERELVAAINWDGGRTYYADSVKGRFTISRDNAKNTVYLQMNSLKPEDTAVYYCNAVGRYRSGFDYWGQGTQVTVSS . Its measured polyreactivity (PSR sort gate) is high polyreactivity

----------
measurement protocol: yeast display, Sf9 membrane polyspecificity reagent, FACS + sequencing; frameworks hold sequencing errors

chain sequence: QVQLVESGGGLVQAGGSLRLSCAASGSTFPSYTMGWYRQAPGKERELVAAITLSGGSTYYADSVNGRFTISRDNAKYTVYLQMNSLKPSDTAVYYCAAYSQRGYYWGQGTQVTVSS
polyreactivity (PSR sort gate): low polyreactivity
//
chain sequence: QVQLVESGGGLVQAGGSLRLSCAASGSIFPSNAMGWYRQAPGKERELVAAISWSGDITYYADSVKGRFTISRDNAKNTVYLQLNSLKPEDTAVYYCAADTPIAGYWYNYWGQGTQVTVSS
polyreactivity (PSR sort gate): low polyreactivity

----------
measurement protocol: yeast display, Sf9 membrane polyspecificity reagent, FACS + sequencing; frameworks hold sequencing errors
readout name: polyreactivity (PSR sort gate)

Worked set:
chain sequence: QVQLVESGGGLVQAGGSLRLSCAASGLTFTLNAMGRYRQATGKERELVATISQDGGGTTYADSVKGRFTISRDNAKNTVYLQMNSLKPEDTAVYYCATTLPPSVWGEWSGTRYPYDYWGQGTQVTVSS
value: low polyreactivity

chain sequence: QVQLLESGGGLVQAGGSLRLSCAASGSTFYFNAMGWYSQAPGKDSELVAGIRYSGSSTYYADSVKGRFTISRDNAKNTVYLQMHSLKPEDTAVYYCAASLWRWRFSRFGYWGQGTQVTVSS
value: high polyreactivity

chain sequence: QVQLVESGGGLVQAGGSLRLSCAASGGTFQRYVMGWYRQAPGKERELVAAISRSGSTYADSVKGRFTISRDNAKNTVYLQMKSLKPEDTAVYYCNVVSYYRYYLHGYDYWGQGTQVTVSS
value: high polyreactivity

chain sequence: QVQLVESGGGLVQAGGSLRLSCDASGSTFYRNVIGWYRQAPGKERELVAAISSGGSTYYADSVKGRFTISRDNAKNTVYFQMNSLKPEDTAVYYCAARKRYSYDYWGQGTQVTVSS
value: low polyreactivity

chain sequence: QVQLVESGGGLVQAGGSLRLSCAASGKIFNNYVMGWYRQAPGKVRELVARIDSGGSTNYADSVKGRFTISRDNAKNTVYLQMNSLKPEDTAVYYCAARKLSSYAYDYWGQGTQVTVSS
value: low polyreactivity

Consider QVQLVETGGGLVQAGGSLSLSCAASGRTSKINAMGWYRQAPGKERELVASISRTGGTTYYADSVKGRFTISRDNAKNTVYLQMNSVKPEDTAVYYCAVSDFGLRDSLTIYDEYDYWGQGTQVTVSS . Its measured polyreactivity (PSR sort gate) is high polyreactivity

Consider QVQLVESGGGLVQAGGSLRLSCAAYYAMGWYRQAPGKERELVAAIDDGTSTNYADSVKGRFTISRDNAKNTVYLQMKSLKPEDTAVYYCNKLSEVTYYGSKFDYWGQGTQVTVSS . Its measured polyreactivity (PSR sort gate) is low polyreactivity

Consider QVQLVESGGGLVQAGGSLRLSCAASGSTFGTYAMGWYRQAPGKERELVAAITRSGGSTYYADSVKGRFTISRDNAKNTVYLQKNSLKPEDTAVYYCAKYVFSYPQSYAYYYWGHGTQVTVSS . Its measured polyreactivity (PSR sort gate) is high polyreactivity

Consider QVQLVESGGGLVQAGGSLRLSCAASGRIFWFYAMGWYRQATGKERELVAAINTSVGRTHYADSVKGRFTISRDNAKNTVYLQMNSLKPEDTAVYYCASDVKRYGWEYGYWGQGTQVTVSS . Its measured polyreactivity (PSR sort gate) is low polyreactivity

Consider QVQLVESGGGLVQAGGSLRLSCAASGFTFGVYAMGWYRQAPGKERELVAAITWSGGRTYYADSVKGRFTISRDNAKNTVYLQMNSLKPEDTAVYYCAAVFYRYNAVRYDYWGQGTQVTVSS . Its measured polyreactivity (PSR sort gate) is high polyreactivity

Consider QVQLVESGGGLVQAGGSLRLSCAASGLTFSIYAMGWYRQAPGKERELVASITSSGGSTYYADSVKGRFTISRDNAKNTVYLQMNSLKPEDTAVYYCATGRSRDYDYWGQGTQVTVSS . Its measured polyreactivity (PSR sort gate) is high polyreactivity
